growth inhibition by entry:
# TEST_DETAILS: NCI Yeast Anticancer Drug Screen. Data for the rad50 strain (AID 155);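 also: 0% = growth of vehicle-only cultures of the same strain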
# EXPERIMENTAL_CONDITIONS: S. cerevisiae rad50 strain growth inhibition; at 50.0 µM; stronger effect = higher value
This is part of a sample that, as a whole, favours compounds with a hit. Of some 79,000 tested, about 15% had one in any assay. Activity calls are given as the source filed them. Rule as the data show it: active = growth inhibition above about 70%; inactive = the rest.

Examples from the recorded data:
For O=C(O)c1c(-c2ccccc2)cc(-c2ccccc2)cc1-c1ccccc1 , what is its reported growth inhibition? 99.1% (active)

Next record, please: CN1C=Cc2ccccc2C1C(C1c2ccccc2C=CN1C)[N+](=O)[O-] (stereo unspecified) -5.6% (inactive)

Next record, please: OC(CCN1CCOCC1)C1c2ccccc2Cc2ccccc21 (stereo unspecified) 77.2% (active)

Next record, please: COc1ncc(Br)cc1C(=O)NCCc1ccc(S(=O)(=O)NC(=O)NC2CCCCC2)cc1 92.8% (active)

Next record, please: COC1=C(C)C(=O)C2=C(C1=O)C1C3CC4=C(C(=O)C(OC)=C(C)C4=O)C(CNC(=O)C(C)=O)N3C(C#N)C(C2)N1C (stereo unspecified) 90.2% (active)

Next record, please: Cc1cc(NCCCN(C)C)c2cc3ccc4cccc5ccc(c2n1)c3c45 95.2% (active)

Next molecule, growth inhibition to be filled in.
For COC(=O)CCC(NC(=S)N/N=C(\C)c1cnc2ccccc2n1)C(=O)OC (stereo unspecified) , what is its reported growth inhibition? 34.1% (inactive)

###

# TEST_DETAILS: NCI Yeast Anticancer Drug Screen. Data for the cln2 rad14 strain (AID 165);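 also: 0% = growth equal to vehicle treated cultures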
# EXPERIMENTAL_CONDITIONS: S. cerevisiae cln2 rad14 strain, at 50.0 µM
This is part of a sample that, as a whole, favours compounds with a hit. Of some 79,000 tested, about 15% had one in any assay. Activity calls are given as the source filed them. Cut-off read from the data, not from the text of the source: active = growth inhibition above about 70%; inactive = the rest.
Output constraint: value belongs to True = active, False = inactive

Consider the worked cases shown below.
Please state the recorded outcome for this compound: O=C1C(=C2C(=O)c3ccccc3[N+]2=O)N([O-])c2ccccc21 False

Next record, please: CC(O[Si](C)(C)C(C)(C)C)C(=O)Sc1ccccn1 (centres undefined) True

Next record, please: CC(C)c1ccc2c(c1)CC[C@@H]1[C@](C)(CO)CCC[C@]21C False

With those in mind, consider the next compound.
Please state the recorded outcome for this compound: Cc1ccc(C2SCC(=O)N2c2ccc(-n3c(-c4ccccc4)nc4ccccc4c3=O)cc2)cc1 (centres undefined) True

###

# TEST_DETAILS: NCI Yeast Anticancer Drug Screen. Data for the bub3 strain (AID 167)
# EXPERIMENTAL_CONDITIONS: S. cerevisiae bub3 mutant strain, at 5.0 µM (retest, dose inferred, filed as 0.5)
The panel holds about 79,000 compounds, 15% with a hit somewhere; the sample as a whole holds those more often. The source made the active and inactive calls. No stated cut-off is given here; in the data, active means growth inhibition above about 70%; inactive means the rest.
Output constraint: value belongs to 1 (yes) (active), 0 (no) (inactive)

Consider the worked cases shown below.
Please state the recorded outcome for this compound: CNc1cc(SC)nc(N)n1 0 (no)

Next record, please: Cc1ccc(NC(=O)/C(CC(=O)c2sc(Nc3ccc(Cl)c(Cl)c3)nc2C)=N\Nc2ccc([N+](=O)[O-])cc2[N+](=O)[O-])c(C)c1 0 (no)

Next record, please: CC(CCC(=O)O)(Nc1ccc([N+](=O)[O-])cc1[N+](=O)[O-])C(=O)O (stereo not given) 0 (no)

Next record, please: CCCCCCCCCCCCCC(N)c1ccc(C)cc1 (stereo not given) 0 (no)

Next record, please: O=C1OS(=O)(=O)c2cc3c(cc21)C1C(C2C3C3(Cl)C(Cl)=C(Cl)C2(Cl)C3(Cl)Cl)C2(Cl)C(Cl)=C(Cl)C1(Cl)C2(Cl)Cl (stereo not given) 0 (no)

Next record, please: NNC(=O)C(=O)N/N=C(/CCC(=O)NCCc1ccccc1)CC(=O)c1ccccc1 0 (no)

Next record, please: O=C(/C=C(/c1ccccc1)P(=O)(c1ccccc1)c1ccccc1)c1ccccc1 0 (no)

Next record, please: CCCCC(CC)COP(=O)(OCC(CC)CCCC)OCC(CC)CCCC (stereo not given) 0 (no)

Next:
Please state the recorded outcome for this compound: CCC(=S)N(C)O 1 (yes)

Next record, please: CCn1c2ccccc2c(=O)c2c(OC)ccc(OC)c21 0 (no)

###

# TEST_DETAILS: NCI Yeast Anticancer Drug Screen. Data for the mlh1 rad18 strain (AID 175)
# EXPERIMENTAL_CONDITIONS: S. cerevisiae mlh1 rad18 strain growth inhibition; at 50.0 µM
The panel holds about 79,000 compounds, 15% with a hit somewhere; the sample as a whole holds those more often. The source made the active and inactive calls. Rule as the data show it: active = growth inhibition above about 70%; inactive = the rest.
Output constraint: value belongs to active, inactive

Please state the recorded outcome for this molecule: CCOC(=O)C1=C(C)NC2=C(C(=O)N(c3ccccc3)C2c2ccccc2)C1c1ccccc1 (centres undefined) inactive

Next record, please: O=c1[nH]c(=O)c2cc([N+](=O)[O-])cc([N+](=O)[O-])c2[nH]1 active

Next record, please: O=C(CC1(O)C(=O)Nc2c(Cl)cc(Cl)cc21)c1ccc(Br)cc1Br (centres undefined) active

Next record, please: CC(=O)O[C@@H]1CC(C)C2CC2C2=C(C(O)OC2O)[C@@H]1C(C)CCC=C(C)C (some centres undefined) active

Next record, please: O=C(N/C(=C\c1ccc(Cl)cc1)c1nc2ccccc2[nH]1)c1ccccc1 active

Next:
Please state the recorded outcome for this molecule: CCOC(=O)C1=C(c2ccccc2)c2ccccc2OC1C(=O)O (centres undefined) inactive

Next record, please: Cc1cc(N=NC(N)=S)c2ccccc2c1O inactive

Next record, please: O=C(CCBr)NC(=O)Oc1cccc2ccccc12 active

Next record, please: CC(Br)C(=O)c1ccc(OCc2ccccc2)cc1 (centres undefined) active

Next record, please: CCOC(=O)CN1CCCC(C(=O)CC2(O)C3(Cl)C4(Cl)C5(Cl)C(Cl)(Cl)C6(Cl)C4(Cl)C2(Cl)C6(Cl)C53Cl)C1 (centres undefined) inactive

Next record, please: COC(=O)C1=Cc2cc3c(cc2[C@H](c2ccc4c(c2)OCO4)C1C(=O)OC)OCO3 (some centres undefined) inactive

Next record, please: CN(C)c1ccc(/C=C2/Oc3ccc(Cl)cc3C2=O)cc1 active

Next record, please: O=C1OCCCOC(=O)c2cc(ccc2O)OCC#CC#CCOc2ccc(O)c1c2 inactive

Next record, please: O=C(CBr)Oc1ccc(-c2cccc(Br)c2)cc1 active

###

# TEST_DETAILS: NCI Yeast Anticancer Drug Screen. Data for the rad50 strain (AID 155);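 also: 0% = growth of vehicle-only cultures of the same strain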
# EXPERIMENTAL_CONDITIONS: S. cerevisiae rad50 strain growth inhibition; at 5.0 µM (retest, dose inferred, filed as 0.5); stronger effect = higher value
About 79,000 compounds went through this panel and 15% of them were active in at least one assay; those are over-represented in the sample as a whole. Calls of active or inactive are those of the source. No stated cut-off is given here; in the data, active means growth inhibition above about 70%; inactive means the rest.
MEASURED_PROPERTY: growth inhibition

For CCOCCNCc1ccc(Cl)c(Cl)c1 , what is its reported growth inhibition? -145% (inactive)

Next record, please: Cc1cnc(Sc2c([N+](=O)[O-])ncn2C)nc1 3% (inactive)

Next record, please: O/N=C(/CN1CCN(c2ccccc2)CC1)c1ccccc1 1% (inactive)

Next molecule, growth inhibition to be filled in.
For COc1cc(C2OC(=O)c3ccccc3S2)ccc1O (configuration not stated) , what is its reported growth inhibition? 8% (inactive)

###

# TEST_DETAILS: NCI Yeast Anticancer Drug Screen. Data for the sgs1 mgt1 strain (AID 161);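 also: 0% = growth of cultures given vehicle only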
# EXPERIMENTAL_CONDITIONS: S. cerevisiae sgs1 mgt1 strain, at 50.0 µM (retest, dose inferred, filed as 5.0), stronger effect = higher value
About 79,000 compounds went through this panel and 15% of them were active in at least one assay; those are over-represented in the sample as a whole.
growth inhibition by entry:
// units = %; emit number, no label

Examples from the recorded data:
For CC(=O)/C(=C\c1cccs1)C(=O)CCN(C)C , what is its reported growth inhibition? 29

Next record, please: CN(C)C(=S)/N=c1\ss/c(=N\C(=S)N(C)C)n1-c1cccc(Cl)c1 12

Next record, please: CCC(=O)OC1=C(Cl)C(=O)c2ccccc2C1=O 99

Next record, please: CC(Nc1cc(Cl)cc(Cl)c1)c1ccncc1 (configuration not stated) 91

Next:
For CCCCCCCCCCS(=O)(=O)Nc1ccc(C(=O)NN)cc1 , what is its reported growth inhibition? 82

Next record, please: CC(=O)NC1=C(Sc2ccc(C)cc2)C(=O)c2ccccc2C1=O 95

Next record, please: CN(C)CCNc1ccc([N+](=O)[O-])c2nc3ccccc3c(N)c12 -24

Next record, please: CCCCNc1ccc(-c2c(N)nc(N)nc2CC)cc1[N+](=O)[O-] 15

Next record, please: Cc1ccc(S(=O)(=O)OCCc2ccc(Cl)cc2)cc1 41

Next record, please: ClCc1ccc2ccc3ccc(CCl)nc3c2n1 93

Next record, please: COc1ccc2c3c(c4cc(OC)c(OC)cc4c2c1)CN1CCC[C@H]1[C@@H]3O 98

Next record, please: C=C(CN1CCOCC1)C(=O)c1ccccc1 73

Next record, please: O=C(c1ccccc1)c1cn(/N=C\c2ccccc2)c(=O)nc1-c1ccccc1 94

Next record, please: CN(C)N=Nc1ccc2[nH]c(=O)[nH]c2c1 -18

Next record, please: CCC(CC)COC(=O)c1cccnc1 99

Next record, please: C/C=C/C=N/N(c1nnc(-c2ccccc2)c(-c2ccccc2)n1)S(=O)(=O)c1ccc(C)cc1 36

Next record, please: Cc1ccc(S(=O)(=O)C(=S)Sc2ccccc2)cc1 88

Next record, please: CN(Cc1cc(Br)cc(Br)c1O)Cc1c[nH]c2ccccc12 14

Next record, please: O=C(O)c1ccccc1/C=C1\Cc2ccc3c(c2C1=O)CCCC3 6
